# Test System: T1, Homo sapiens CGRP-alpha (Calcitonin Gene Related Peptide alpha) (Homo sapiens, -NH2 at the C-terminal end as printed ('wherein the N-terminal phenylalanine is amidated'); 125I radiolabeled in the receptor binding assay of Example 6)
# T1 construct: 37-residue synthetic peptide from American Peptides / Bachem; Coated directly on the plate in the ELISA of recombinant antibodies; also called CGRPα; human CGRPα
# T1 peptide: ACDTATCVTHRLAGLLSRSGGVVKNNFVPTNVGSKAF
# Assay Comment: ELISA, CGRPα coated on plate, anti-human IgG Fc-HRP detection
Parameter Measured: binding result

>>> observed_value("Antibody Ab7 (antibody, human IgG1, kappa, N297A, V domains shown, Chimeric full-length anti-CGRP antibody) VH: QEQLKESGGRLVTPGTSLTLTCTVSGIDLSNHYMQWVRQAPGKGLEWIGVVGINGRTYYASWAKGRFTISRTSSTTVDLKMTRLTTEDTATYFCARGDIWGPGTLVTVSS VL: QVLTQTASPVSAAVGSTVTINCQASQSVYNYNYLAWYQQKPGQPPKQLIYSTSTLASGVSSRFKGSGSGTQFTLTISDVQCDDAATYYCLGSYDCSTGDCFVFGGGTEVVVKR")
"binds"
>>> observed_value("Antibody Ab11 (antibody, human IgG1, kappa, N297A, V domains shown, Chimeric full-length anti-CGRP antibody; also called Abll) VH: QSLEESGGRLVTPGGSLTLTCTVSGIDVTNYYMQWVRQAPGKGLEWIGVIGVNGKRYYASWAKGRFTISKTSSTTVDLKMTSLTTEDTATYFCARGDIWGPGTLVTVSS VL: QVLTQTASPVSPAVGSTVTINCRASQSVYYNNYLAWYQQKPGQPPKQLIYSTSTLASGVSSRFKGSGSGTQFTLTISDVQCDDAATYYCLGSYDCSNGDCFVFGGGTEVVVKR")
"binds"
>>> observed_value("Antibody Ab12 (antibody, human IgG1, kappa, N297A, V domains shown, Humanized full-length anti-CGRP antibody) VH: EVQLVESGGGLVQPGGSLRLSCAVSGIDVTNYYMQWVRQAPGKGLEWVGVIGVNGKRYYASWAKGRFTISRDNSKTTVYLQMNSLRAEDTAVYFCARGDIWGQGTLVTVSS VL: QVLTQSPSSLSASVGDRVTINCRASQSVYYNNYLAWYQQKPGKVPKQLIYSTSTLASGVPSRFSGSGSGTDFTLTISSLQPEDVATYYCLGSYDCSNGDCFVFGGGTKVEIKR")
"binds"
>>> observed_value("Antibody Ab8 (antibody, human IgG1, kappa, N297A, V domains shown, Humanized full-length anti-CGRP antibody) VH: EVQLVESGGGLVQPGGSLRLSCAVSGIDLSNHYMQWVRQAPGKGLEWVGVVGINGRTYYASWAKGRFTISRDNSKTTVYLQMNSLRAEDTAVYFCARGDIWGQGTLVTVSS VL: QVLTQSPSSLSASVGDRVTINCQASQSVYNYNYLAWYQQKPGKVPKQLIYSTSTLASGVPSRFSGSGSGTDFTLTISSLQPEDVATYYCLGSYDCSTGDCFVFGGGTKVEIKR")
"binds"
>>> observed_value("Antibody Ab9 (antibody, human IgG1, kappa, N297A, V domains shown, Chimeric full-length anti-CGRP antibody) VH: QSLEESGGRLVTPGTPLTLTCTVSGIGLSSYYMQWVRQSPGRGLEWIGVIGSDGKTYYATWAKGRFTISKTSSTTVDLRMASLTTEDTATYFCTRGDIWGPGTLVTVSS VL: QVLTQTPSPVSAAVGSTVTINCQASQNVYNNNYLAWYQQKPGQPPKQLIYSTSTLASGVSSRFRGSGSGTQFTLTISDVQCDDAATYYCLGSYDCSRGDCFVFGGGTEVVVKR")
"binds"
>>> observed_value("Antibody Ab1 (antibody, human IgG1, kappa, N297A, V domains shown, Chimeric (rabbit variable, human gamma-1/kappa constant) full-length anti-CGRP antibody) VH: QSLEESGGRLVTPGTPLTLTCTVSGLDLSSYYMQWVRQAPGKGLEWIGVIGINDNTYYASWAKGRFTISRASSTTVDLKMTSLTTEDTATYFCARGDIWGPGTLVTVSS VL: QVLTQTASPVSAAVGSTVTINCQASQSVYDNNYLAWYQQKPGQPPKQLIYSTSTLASGVSSRFKGSGSGTQFTLTISDLECADAATYYCLGSYDCSSGDCFVFGGGTEVVVKR")
"binds"
>>> observed_value("Antibody Ab4 (antibody, human IgG1, kappa, N297A, V domains shown) VH: QSLEESGGRLVTPGTPLTLTCSVSGIDLSGYYMNWVRQAPGKGLEWIGVIGINGATYYASWAKGRFTISKTSSTTVDLKMTSLTTEDTATYFCARGDIWGPGTLVTVSS VL: QVLTQTPSPVSAAVGSTVTINCQASQSVYHNTYLAWYQQKPGQPPKQLIYDASTLASGVPSRFSGSGSGTQFTLTISGVQCNDAAAYYCLGSYDCTNGDCFVFGGGTEVVVKR")
"binds"
